System: MEL-28
Experimental details: Inhibition of cell growth by counting cells, MEL-28
Type: cell-based, human
Settings: Homo sapiens, SK-MEL-28, 72 h; three days of incubation; read-out: IC50 (molar) MEL-28
pIC50: −log10 of the molar value.
Listed here: items and their measured pIC50.

- Molecule: "C=CCOC(=O)NC(CSCC1c2ccccc2-c2ccccc21)C(=O)Oc1cc2c(cc1OC)[C@@]1(CS[C@@H]3c4c(OC(C)=O)c(C)c5c(c4[C@H](COC1=O)N1C3[C@H]3c4c(cc(C)c(OC)c4O)C[C@@H]([C@@H]1C#N)N3C)OCO5)NCC2 (some centres unmarked) [Compound 18]"
  pIC50: 9.36
- Molecule: "C=CCOC(=O)NC(CSCC1c2ccccc2-c2ccccc21)C(=O)Oc1cc2c(cc1OC)[C@@]1(CS[C@@H]3c4c(OC(C)=O)c(C)c5c(c4[C@H](COC1=O)N1C3[C@H]3c4c(cc(C)c(OC)c4O)C[C@@H]([C@@H]1O)N3C)OCO5)NCC2 (some centres unmarked) [Compound 62]"
  pIC50: 9.05

Entry source: patent US7759345B2
